Catalogue of compounds with associated residual activity
- Target System: UniProt:Q96RG2
- Sequence (Q96RG2 whole entry, looked up): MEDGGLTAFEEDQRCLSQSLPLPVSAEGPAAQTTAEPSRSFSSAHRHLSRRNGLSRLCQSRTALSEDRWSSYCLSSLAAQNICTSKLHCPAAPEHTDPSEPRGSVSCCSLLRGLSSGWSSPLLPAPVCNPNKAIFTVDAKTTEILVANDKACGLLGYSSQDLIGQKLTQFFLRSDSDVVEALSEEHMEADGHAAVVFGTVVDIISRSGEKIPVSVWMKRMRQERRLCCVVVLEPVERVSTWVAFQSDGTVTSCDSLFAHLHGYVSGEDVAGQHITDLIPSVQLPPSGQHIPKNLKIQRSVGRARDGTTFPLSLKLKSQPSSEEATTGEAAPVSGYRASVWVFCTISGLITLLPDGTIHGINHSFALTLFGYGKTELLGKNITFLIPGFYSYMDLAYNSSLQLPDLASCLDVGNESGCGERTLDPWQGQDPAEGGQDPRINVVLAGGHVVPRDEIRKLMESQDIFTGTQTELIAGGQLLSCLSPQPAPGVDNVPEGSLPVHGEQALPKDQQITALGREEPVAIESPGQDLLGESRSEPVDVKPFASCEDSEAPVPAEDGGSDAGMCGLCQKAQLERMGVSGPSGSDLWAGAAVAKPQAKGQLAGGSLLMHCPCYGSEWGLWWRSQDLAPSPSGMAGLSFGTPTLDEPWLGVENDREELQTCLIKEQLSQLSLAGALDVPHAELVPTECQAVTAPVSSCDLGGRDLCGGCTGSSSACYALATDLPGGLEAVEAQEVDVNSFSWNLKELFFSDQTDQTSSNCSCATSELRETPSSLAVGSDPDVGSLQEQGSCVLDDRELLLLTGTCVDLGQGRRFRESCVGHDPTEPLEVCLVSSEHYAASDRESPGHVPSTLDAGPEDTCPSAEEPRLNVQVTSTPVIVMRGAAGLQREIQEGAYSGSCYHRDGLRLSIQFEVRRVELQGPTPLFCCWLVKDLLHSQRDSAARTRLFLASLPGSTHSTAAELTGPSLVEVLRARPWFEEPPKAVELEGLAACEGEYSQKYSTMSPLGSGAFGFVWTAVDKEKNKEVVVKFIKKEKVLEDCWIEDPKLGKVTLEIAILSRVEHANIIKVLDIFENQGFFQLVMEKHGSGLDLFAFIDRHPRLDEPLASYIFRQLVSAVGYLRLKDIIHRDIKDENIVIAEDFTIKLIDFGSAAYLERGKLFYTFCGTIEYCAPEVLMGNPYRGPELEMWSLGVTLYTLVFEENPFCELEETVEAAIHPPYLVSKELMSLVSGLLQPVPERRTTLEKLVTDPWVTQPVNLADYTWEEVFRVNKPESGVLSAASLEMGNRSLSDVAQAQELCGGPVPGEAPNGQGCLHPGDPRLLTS
- Protocol: radiometric filter-binding kinase assay, Kinase HotSpot
- Measurement Parameters: compound 0.5 µM; ATP 10 µM
Return type: number; implicit unit %.

Worked cases, answers included:
Compound	Observation Type	Recorded Measurement
Nc1ncnc2[nH]nc(Nc3ccc(F)cc3)c12	residual activity	91.8
CNc1cc2c(Nc3cccc(Br)c3)ncnc2cn1	residual activity	86.9
O=c1cc(N2CCOCC2)oc2c1ccc1ccccc12	residual activity	94.9
N#CC(C#N)=C(N)/C(C#N)=C/c1ccc(O)cc1	residual activity	82.9
Cc1ccc(Nc2nccc(N(C)c3ccc4c(C)n(C)nc4c3)n2)cc1S(N)(=O)=O	residual activity	101
CO[C@H]1CC2CC[C@@H](C)[C@@](O)(O2)C(=O)C(=O)N2CCCC[C@H]2C(=O)OC([C@H](C)C[C@@H]2CC[C@@H](O)[C@H](OC)C2)CC(=O)[C@H](C)/C=C(\C)[C@@H](O)[C@@H](OC)C(=O)[C@H](C)C[C@H](C)/C=C/C=C/C=C/1C (some centres undefined)	residual activity	101
CC(C)N(CCC(=O)c1ccc2ccccc2c1)Cc1ccccc1	residual activity	97.3
Cc1ccc(S(=O)(=O)/C=C/C#N)cc1	residual activity	99.3
CCN(CC)CCNC(=O)c1c(C)[nH]c(/C=C2\C(=O)Nc3ccc(Cl)cc32)c1C	residual activity	89.6
Nc1ncnc2c1c(-c1ccc(Oc3ccccc3)cc1)cn2C1CCCC1	residual activity	98.5

As a next step, examine the compound that follows.
Ask: Give recorded residual activity. `COc1cc2ncnc(Nc3cccc(Cl)c3)c2cc1OC`
Reply: 90.2

---

Catalogue of compounds with associated residual activity
- Target System: CLK2 (human) (UniProt P49760)
- Sequence (P49760 whole entry, looked up): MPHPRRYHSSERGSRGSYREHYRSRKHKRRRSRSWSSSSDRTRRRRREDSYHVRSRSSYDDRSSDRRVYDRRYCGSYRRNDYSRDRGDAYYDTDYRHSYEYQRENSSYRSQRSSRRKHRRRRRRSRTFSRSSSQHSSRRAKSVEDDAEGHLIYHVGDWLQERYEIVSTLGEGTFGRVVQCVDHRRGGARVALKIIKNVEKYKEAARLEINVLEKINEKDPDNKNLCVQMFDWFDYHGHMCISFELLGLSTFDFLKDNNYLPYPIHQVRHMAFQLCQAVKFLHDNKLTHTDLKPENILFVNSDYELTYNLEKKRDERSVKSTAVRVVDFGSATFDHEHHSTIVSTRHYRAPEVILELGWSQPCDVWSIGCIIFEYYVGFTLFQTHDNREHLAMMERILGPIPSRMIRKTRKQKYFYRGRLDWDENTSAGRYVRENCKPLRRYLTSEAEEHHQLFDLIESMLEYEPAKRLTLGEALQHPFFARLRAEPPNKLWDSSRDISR
- Protocol: radiometric filter-binding kinase assay, Kinase HotSpot
- Measurement Parameters: compound 0.5 µM; ATP 10 µM
Return type: number; implicit unit %.

Worked cases, answers included:
Compound	residual activity / %
c1ccc(-c2n[nH]cc2-c2ccnc3ccccc23)nc1	99.4
CC[n+]1c(/C=C/N(C)c2ccccc2)n(-c2ccccc2)c2ccc(-c3nc4ccccc4s3)cc21	98.4
O=C1NC(=O)C(c2cn(CCCn3ccnc3)c3ccccc23)=C1Nc1ccccc1	14.7
N#C/C(=C(/N)Sc1ccc(N)cc1)c1ccccc1C(F)(F)F	100
CCCC(=O)Oc1ccc2[nH]c(C(=O)c3cc4ccccc4[nH]3)cc2c1	94.3
COc1ccc(COc2ccc(Cc3cnc(N)nc3N)cc2OC)cc1	94.3
CCOC(=O)c1c(C)[nH]c(/C=C2\C(=O)Nc3ccccc32)c1C	86
Cc1ccc(S(=O)(=O)/C=C/C#N)cc1	103

Ask: State, for CLK2 (human) (UniProt P49760), measured residual activity of the compound listed here: `Nc1ncnc2[nH]nc(Nc3ccc(F)cc3)c12`
Reply: 92.4

---

Catalogue of molecules with associated residual activity
- Target System: SIK2 (human)
- Protocol: radiometric filter-binding kinase assay, Kinase HotSpot
- Measurement Parameters: compound 0.5 µM; ATP 10 µM
Return type: number; implicit unit %.

Smiles Representation	Units Text	residual activity
CCOC(=O)c1c(C)[nH]c(/C=C2\C(=O)Nc3ccccc32)c1C	%	99.9
O=S(=O)(c1cccc2cnccc12)N1CCCNCC1	%	97.7

Ask: Give recorded residual activity. `CCC(=O)Nc1ccc2ncnc(Nc3cccc(Br)c3)c2c1`
Reply: 98.7

Ask: Give recorded residual activity. `Cc1ccc(NC2=CC(=O)c3sc(C)nc3C2=O)cc1`
Reply: 118

Ask: Give recorded residual activity. `O=C1NC(=O)C(c2cn(CCCn3ccnc3)c3ccccc23)=C1Nc1ccccc1`
Reply: 90.3

Ask: Give recorded residual activity. `Nc1ncnc2c1c(-c1ccc(Oc3ccccc3)cc1)cn2C1CCCC1`
Reply: 101

Ask: Give recorded residual activity. `CC(=O)c1ccc(N2CCOCC2)cc1O`
Reply: 87

Ask: Give recorded residual activity. `COc1ccc(COc2ccc(Cc3cnc(N)nc3N)cc2OC)cc1`
Reply: 98.6

Ask: Give recorded residual activity. `Cc1ccc(S(=O)(=O)/C=C/C#N)cc1`
Reply: 106

Ask: Give recorded residual activity. `c1ccc(-c2n[nH]c3c2oc2ccccc23)cc1`
Reply: 98.3

Ask: Give recorded residual activity. `c1ccc(-c2n[nH]cc2-c2ccnc3ccccc23)nc1`
Reply: 94.8

Ask: Give recorded residual activity. `O=c1cc(N2CCOCC2)oc2c1ccc1ccccc12`
Reply: 126
